From: PubChem BioAssay (NCI)

# Test system: SW-620 colon
# protocol-summary: NCI tumour cell line growth inhibition, 48 h
endpoint-label: log10(TGI) (log10 of the value in µM)
Parameter value (number): base-10 log of TGI in µM.

compound: O=c1ssc(=Nc2ccccc2)n1-c1ccccc1
test-target: SW-620 colon
val: 1.71

If you can, please state the reported log10(TGI) value of CSc1nc2c(c(=O)[nH]1)N=C(c1ccc([N+](=O)[O-])cc1)CC(c1ccccc1)N2 (stereo not given) . 1.96

Again, but for CC(=O)Oc1cc2c(cc1OC(C)=O)OCC(c1ccccc1)C2 (stereo not given) 1.27

----------
# System: HCC-2998 colon
# protocol-summary: NCI tumour cell line growth inhibition, 48 h
TGI reference
// note: answer is a bare numeric in µM

Example entries begin here.
compound: CSc1nc2c(c(=O)[nH]1)N=C(c1ccc([N+](=O)[O-])cc1)CC(c1ccccc1)N2 (stereo unspecified)
val: 57.7
--
compound: CN=c1ccc2nc3ccc(N)cc3sc-2c1
val: 38.6

Lookup: TGI / HCC-2998 colon / "CN1CCN(C(=O)c2cc(-c3ccc4ncnc(N5CCc6cc(F)c(Cl)cc65)c4c3)cnc2N)CC1" 1.65
